# protocol-notes: soluble fraction after stress (log2 fold change); higher = more stays soluble; pooled small domains, quantitative proteomics
# test-settings: stress: pH 4
Record 1.0 whenever soluble fraction (log2) is at -0.3 or higher; record 0.0 when lower.

HMGASFITSSKDNAINIRESATTDSKVIETIKNGEILESTEKSGDWHKVTYYNSEIKKSFTGYIHNSQLK = 1.0
HMGMGDALRILFNQAMLIEREQYLQAGAYERNENPVNYANGFKAKTLNTRVGALEVAVPQTRDSAFYPSFL = 1.0
HMNTYEIIGGDNRARGPVTGEELSQWIREGRASGHTMARVSDGEHWQPLGSFPEFVGPLQGLPW = 1.0

Input line: Reported soluble fraction (log2) reaches at least -0.3 for HMVILPGEKMVVKIVQPGKEKGQGVGYLADGTMIVVDSGDKMIGQDVPTEITRVFQTVAGKMLFAVPVD ?
Output line: 1.0

Input line: Reported soluble fraction (log2) reaches at least -0.3 for HMFERFIFTDEVYIRLKKSGLPQTTLRPLLEIHGKSFDHNEINIILSGLIPNQDFERYAQIIKSHSRF ?
Output line: 0.0

Input line: Reported soluble fraction (log2) reaches at least -0.3 for HMRQIMIIVLKSTATKEDSLLFKNKLEQEYGVKVNEWTGVESTVLGLIGDTTKIDIDYISAQDIVESVKRV ?
Output line: 0.0

Input line: Reported soluble fraction (log2) reaches at least -0.3 for HMVPHQPRVWTNTAGKTITAAFVRFNAAGRKVSLKLEKGRQVELPLASLSGNDVDWIKEHVPEAMSNQE ?
Output line: 1.0

Input line: Reported soluble fraction (log2) reaches at least -0.3 for HMDPPVDLTPREQQVLSRIALGMSDKAIAAELGVSHQTVRNHVARIYAKIKVHSRSQAIVWAREKGIP ?
Output line: 1.0
